Each entry below lists one item and its recorded OX2R agonist activity (3 μM, %) value.
# tested-target: human orexin type 2 receptor (Homo sapiens)
# Construct: expressed in transfected cells
# Sequence (O43614 whole entry): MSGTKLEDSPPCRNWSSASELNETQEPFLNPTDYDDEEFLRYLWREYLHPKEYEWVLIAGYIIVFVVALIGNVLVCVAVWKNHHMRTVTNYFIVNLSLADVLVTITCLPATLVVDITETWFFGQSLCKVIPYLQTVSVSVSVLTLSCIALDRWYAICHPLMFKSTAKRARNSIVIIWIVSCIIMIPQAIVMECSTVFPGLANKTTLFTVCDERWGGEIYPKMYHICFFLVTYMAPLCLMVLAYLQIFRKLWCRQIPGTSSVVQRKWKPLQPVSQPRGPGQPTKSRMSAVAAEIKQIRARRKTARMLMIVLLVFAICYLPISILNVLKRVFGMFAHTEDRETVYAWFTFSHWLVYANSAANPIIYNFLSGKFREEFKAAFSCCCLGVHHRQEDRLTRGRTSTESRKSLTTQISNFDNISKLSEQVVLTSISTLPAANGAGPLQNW
# method: Measurement of orexin type 2 receptor agonist activity (calcium indicator fluorescence, CHO cells forcibly expressing human OX2 receptor)
# Format: cell-based
# assay-conditions: compound at 3 μM; 0% = DMSO, 100% = orexin A (human) 10 nM
Report only the number, with the unit % understood.

Exercise: Reported OX2R agonist activity (3 μM, %) for `CCS(=O)(=O)N[C@H]1[C@@H](F)CN(C(=O)C2CC2)[C@H]1Cc1cccc(-c2cccc(Cl)c2)c1F` : what is it?
Solution: 102

Exercise: Same again, this time with `CCS(=O)(=O)N[C@H]1[C@@H](F)CN(C(=O)N2CCC2)[C@H]1Cc1cccc(-c2cccc(C)c2)c1F`
Solution: 82

Exercise: Same again, this time with `CC(C)C(=O)N1CC(F)(F)[C@H](NS(C)(=O)=O)[C@@H]1Cc1cccc(-c2ccccc2)c1F`
Solution: 95

Exercise: Same again, this time with `CCS(=O)(=O)N[C@H]1[C@@H](F)CN(C(=O)C2CC2)[C@H]1Cc1cccc(-c2cccc(Cl)c2F)c1F`
Solution: 94

Exercise: Same again, this time with CS(=O)(=O)N[C@@H]1[C@H](Cc2cccc(-c3cc(F)cc(Cl)c3)c2F)N(C(=O)C2CCO2)CC1(F)F (some centres unmarked) [Example 265]
Solution: 96

Lab note: next compound to report on.
Exercise: Reported OX2R agonist activity (3 μM, %) for `CN(C)C(=O)N1CC(F)(F)[C@H](NS(=O)(=O)N(C)C)[C@@H]1Cc1cccc(-c2cccc(F)c2)c1F` : what is it?
Solution: 83
